# key: entry, value: IC50
target: Nucleotide-binding oligomerization domain-containing protein 1 (Homo sapiens, UniProt Q9Y239); assay: Inhibition of NOD1 (unknown origin) expressed in HEK293T cells coexpressing NF-kappaB driven luciferase reporter gene by HTS primary assay
Sequence (Q9Y239 whole entry, the tested form may be a part): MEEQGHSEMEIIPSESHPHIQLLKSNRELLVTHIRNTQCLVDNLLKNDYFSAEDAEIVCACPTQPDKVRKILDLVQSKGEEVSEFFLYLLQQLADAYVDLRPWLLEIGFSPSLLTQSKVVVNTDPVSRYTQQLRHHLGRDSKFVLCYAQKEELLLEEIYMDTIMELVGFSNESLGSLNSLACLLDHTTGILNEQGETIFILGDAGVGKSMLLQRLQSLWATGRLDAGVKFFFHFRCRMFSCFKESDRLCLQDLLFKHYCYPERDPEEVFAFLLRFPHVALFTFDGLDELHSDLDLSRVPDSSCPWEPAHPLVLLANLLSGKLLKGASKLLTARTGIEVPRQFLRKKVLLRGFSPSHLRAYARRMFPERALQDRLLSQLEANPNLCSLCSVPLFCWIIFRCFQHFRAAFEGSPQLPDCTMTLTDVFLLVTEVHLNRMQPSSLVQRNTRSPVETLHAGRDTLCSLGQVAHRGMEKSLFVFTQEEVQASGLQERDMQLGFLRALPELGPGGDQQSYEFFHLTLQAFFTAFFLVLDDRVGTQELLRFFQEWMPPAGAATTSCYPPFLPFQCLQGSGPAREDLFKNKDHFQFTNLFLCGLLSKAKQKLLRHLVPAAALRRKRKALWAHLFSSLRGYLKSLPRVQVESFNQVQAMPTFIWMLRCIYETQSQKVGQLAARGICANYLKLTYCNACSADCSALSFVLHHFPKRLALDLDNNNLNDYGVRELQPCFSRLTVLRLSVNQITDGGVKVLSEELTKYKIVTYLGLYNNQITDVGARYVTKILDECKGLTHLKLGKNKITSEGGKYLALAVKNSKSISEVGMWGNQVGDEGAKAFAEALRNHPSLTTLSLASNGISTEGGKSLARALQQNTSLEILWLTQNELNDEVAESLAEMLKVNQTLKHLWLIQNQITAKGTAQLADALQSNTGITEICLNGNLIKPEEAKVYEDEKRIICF

{"columns": ["MOLECULE SMILES", "IC50, µM"],
 "data": [
  ["O=C(Cn1c(CCNC(=O)c2ccc3ccccc3c2)nc2ccccc21)Nc1ccc2c(c1)CCC2", 3.4],
  ["O=C(Cn1c(CCNC(=O)c2ccccc2)nc2ccccc21)Nc1ccc2ccccc2c1", 1.6],
  ["CN(CCc1nc2ccccc2n1CC(=O)Nc1ccc2c(c1)CCC2)C(=O)c1ccc2ccccc2c1", 0.2],
  ["CC(C)c1cccc(NC(=O)Cn2c(CCNC(=O)c3ccccc3)nc3ccccc32)c1", 0.8],
  ["CN(CCc1nc2ccccc2n1CC(=O)Nc1ccc2c(c1)CCC2)C(=O)c1ccccc1", 0.4],
  ["O=C(Cn1c(CCNC(=O)c2ccccc2)nc2ccccc21)Nc1ccc2c(c1)CCC2", 3.3],
  ["O=C(Cn1c(CCNC(=O)c2ccccc2)nc2cc(Cl)ccc21)Nc1ccc2c(c1)CCC2", 1.3]
]}
